- System: MDA-MB-435 melanoma
- experimentalProtocol: NCI-60 one-dose screen, 48 h (100 = growth as untreated, 0 = no growth, -100 = all killed)
- studyConditions: 10 µM unless noted
- Description: Growth inhibition of the MDA-MB-435 human Melanoma tumor cell line is measured as a screen for anti-cancer activity. Cells are grown in 96 well plates and exposed to the test compound for 48 hours. Compounds are tested at a single concentration, which is 10^-5 M for most compounds. The reported endpoint is percent growth (GI% or GIPRCNT), where numbers from 0 - 100% represent growth inhibition, and numbers from -100% - 0 represent cell death. […]
Compounds without any hit were thinned out: in the full panel of roughly 83,000, 20% have a hit.
Label Fulfilled when growth is at or above 50%; otherwise label Not fulfilled.

* C=C(C)[C@@H]1CC[C@]2(C(=O)N3CCN(C)CC3)CC[C@]3(C)[C@H](CC[C@@H]4[C@@]5(C)CC[C@H](OP(=O)(OCC)OCC)C(C)(C)[C@@H]5CC[C@]43C)[C@@H]12 | Fulfilled
* COc1ccccc1Cn1cc(C#N)c(N)c1C(=O)c1ccc(Br)cc1 | Fulfilled
* CCOC(=O)c1ccccc1NC1=C(Cl)C(=O)c2nc(C)ccc2C1=O | Fulfilled
* CN1CCN(c2ccc(Nc3nc(NCCCNS(=O)(=O)c4ccc(F)cc4)c4sccc4n3)cc2)CC1 | Not fulfilled

query: Please tell me: is the molecule `COc1cc(OC)cc(-c2cc(-c3c[nH]c4ccccc34)nc(-c3c[nH]c4ccccc34)c2C#N)c1` at or over 50% in terms of growth?
result: Fulfilled

query: Please give the result for `CCOC(=O)c1c(N)c(C#N)cn1Cc1ccc(Cl)cc1Cl` too.
result: Not fulfilled

query: Repeat with `N#C/C(=C\c1ccc(-c2ccc(Cl)c(Cl)c2)o1)C(=O)Nc1ncc(Cc2ccc(Cl)cc2)s1`
result: Not fulfilled

====

- Tested on: HCT-15 colon
- experimentalProtocol: NCI-60 one-dose screen, 48 h (100 = growth as untreated, 0 = no growth, -100 = all killed)
- studyConditions: 10 µM unless noted
This is part of a sample that, as a whole, favours compounds with a hit. Of some 83,000 tested, about 20% had one in any assay.
The compounds listed here are annotated with their growth.
Give the value in % but do not write % after it.

Answered cases to consult:
* CCN(CC)CCOc1ccc(C(=C(c2ccccc2)C2CCCC2)c2ccc(OCCN(CC)CC)cc2)cc1 | -70.2
* NC1C2CCC1CN(c1cnc(C(=O)Nc3cc(F)cc4cccnc34)cn1)C2 (stereo unspecified) | 6.16
* C#Cc1nc(/C=C/C(=O)NO)cs1 | 76.3
* CC(O)c1cccc(/C(N)=N/C(N)=N/c2nc3ccccc3s2)c1 (stereo unspecified) | 56.7
* NC(=O)c1ncn2c(=O)n(CCF)nnc12 | 80.4
* Fc1ccc(-c2cn3c(-c4c[nH]c5ccc(Br)cc45)csc3n2)cc1 | 77.8

query: growth lookup needed for `CCN(CC)CCOc1ccc(C(=C(C)Cc2ccc(OC)cc2)c2ccc(OCCN(CC)CC)cc2)cc1` , thanks.
result: 7.13

query: For `CN1CCN(Cc2ccc(NC(=O)c3cncc(C#Cc4cnc5ccc(OCC(F)F)nn45)c3)cc2C(F)(F)F)CC1` then?
result: -57.4

====

- System: SNB-75 CNS
- experimentalProtocol: NCI-60 one-dose screen, 48 h (100 = growth as untreated, 0 = no growth, -100 = all killed)
- studyConditions: 10 µM unless noted
This is part of a sample that, as a whole, favours compounds with a hit. Of some 83,000 tested, about 20% had one in any assay.
Label scheme for growth: bin 1 (below 70%), bin 2 (70% to below 90%), bin 3 (90% or more)

Sample answers from the record:
* NC1CC2(CCN(c3cnc(C(=O)Nc4cc(F)cc5cccnc45)cn3)CC2)C1 | bin 2
* Cc1csc(/N=C(N)/N=C(\N)c2cccs2)n1 | bin 3
* COC(=O)c1cccc(NC2=C(Cl)C(=O)c3nc(C)ccc3C2=O)c1 | bin 3
* O=S(=O)(Oc1ccc(-c2cn3ccoc3n2)cc1)c1cccc(C(F)(F)F)c1 | bin 3

query: Where would `N#Cc1c(-c2ccc(F)cc2)cc(-c2c[nH]c3ccccc23)nc1-c1c[nH]c2ccccc12` land among the classes by reported growth?
result: bin 3

query: Try `C#CCn1cc(/C=N/Nc2nc(-c3ccc(Br)cc3)cs2)c2ccccc21` next.
result: bin 3

query: Again, but for `CCOC(=O)c1ccccc1NC1=C(Cl)C(=O)c2nc(C)ccc2C1=O`
result: bin 2
